Reported IC50 values are given for each entry in this list.
ASSAYED TARGET: SARS-CoV-2 S (Severe acute respiratory syndrome coronavirus 2, UniProt P0DTC2)
Construct: expressed in transfected cells
TEST DETAILS: β-Gal complementation-based cell-cell fusion assay (S-protein-mediated fusion)
CONDITION NOTES: 50% inhibitory concentration (IC50), inhibition of S-mediated fusion
Starred links: 1 amine or outer side, 2 acyl side, 3 side chain; linkers in the order of their positions; H or OH if unused. Non-standard residues stand in square brackets, D forms with d. *: point of attachment. X2 = CC(C)CCC[C@@H](C)[C@H]1CC[C@H]2[C@@H]3CC=C4C[C@@H](OC(=O)CCOCCOCCOCCOCCNC(=O)C*)CC[C@]4(C)[C@H]3CC[C@]12C; X1 = O=C([C@H]1CNC[C@@H]1N[*:1])[*:2]; β3hE = N[C@@H](CCC(=O)O)CC(=O)O; β3hQ = NC(=O)CC[C@H](N)CC(=O)O; β3hD = NC(CC(=O)O)CC(=O)O

>  <SUBSTANCE>
Ac-[β3hD]IS[β3hQ]INASVVNIEYEI[X1]KLEEVAKKLEESLI[β3hD]L[β3hQ]ELGSGSGC(X2)-NH2 [α/β-SARS2 HRC QE-5]

>  <IC50>
~1000 nM

$$$$
>  <SUBSTANCE>
Ac-[β3hD]IS[β3hQ]INASVVNIEYEIKKLEEVA[X1]KLEESLI[β3hD]L[β3hQ]ELGSGSGC(X2)-NH2 [α/β-SARS2 HRC QE-6]

>  <IC50>
~20 nM

$$$$
>  <SUBSTANCE>
Ac-[β3hD]IS[β3hQ]INASVVNIEYEI[X1]KLEEVA[X1]KLEESLI[β3hD]L[β3hQ]ELGSGSGC(X2)-NH2 [α/β-SARS2 HRC QE-7]

>  <IC50>
~20 nM

$$$$
>  <SUBSTANCE>
Ac-[β3hD]IS[β3hQ]INASVVNIEYEI[X1]KLEEVA[X1]KLE[β3hE]SLI[β3hD]L[β3hQ]ELGSGSGC(X2)-NH2 [α/β-SARS2 HRC QE-8]

>  <IC50>
~100 nM

$$$$
